Measured pKi on Substance-K receptor (Rattus norvegicus, UniProt P16610) follows.
Sequence (P16610 whole entry): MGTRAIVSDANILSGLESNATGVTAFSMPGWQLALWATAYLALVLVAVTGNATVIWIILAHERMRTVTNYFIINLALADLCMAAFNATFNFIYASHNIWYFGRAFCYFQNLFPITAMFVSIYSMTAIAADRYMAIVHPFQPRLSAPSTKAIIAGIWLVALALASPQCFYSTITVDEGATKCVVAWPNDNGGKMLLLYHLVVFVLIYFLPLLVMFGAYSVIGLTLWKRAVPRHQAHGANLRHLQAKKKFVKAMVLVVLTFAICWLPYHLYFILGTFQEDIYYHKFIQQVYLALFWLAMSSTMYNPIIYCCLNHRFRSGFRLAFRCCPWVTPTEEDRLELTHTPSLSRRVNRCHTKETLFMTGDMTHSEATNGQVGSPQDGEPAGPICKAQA
Numbers only, as −log10 of the molar value.

# example entries with known answers
Cc1ccc(CN2CC3(CCN(CCc4c[nH]c5ccc(F)cc45)CC3)OC2=O)cc1
9.00
O=C1OC2(CCN(CCc3c[nH]c4ccc(F)cc34)CC2)CN1Cc1cccc(F)c1
8.80
CC(c1ccccc1)N1CC2(CCN(CCc3c[nH]c4ccc(F)cc34)CC2)OC1=O (centres undefined)
7.70

Please turn your attention to the following entry.
Exercise: Reported pKi, compound `O=C1OC2(CCN(CCc3c[nH]c4ccc(F)cc34)CC2)CN1Cc1ccncc1` : ____
Solution: 7.00
